SUBJECT OF TEST: UniProt P22412
METHOD SUMMARY: Test 2: stability against DHP-I (porcine)
EXPERIMENTAL CONDITIONS: partly purified Porcine DHP-I, 100 μg (titer)/ml, 37° C., HPLC
Would you kindly list residual amounts (%) after 3 hours for each of these molecules?
Numbers only, in %.

Consider the following illustrative entries.
MOLECULE	MEASURED VALUE
C[C@@H](O)[C@H]1C(=O)N2C(C(=O)[O-])=C(c3cn4cnc(S(=O)(=O)N(C)C)c4s3)[C@H](C)[C@H]12.[Na+]	73
Cc1nc(S(C)(=O)=O)c2sc(C3=C(C(=O)[O-])N4C(=O)[C@H]([C@@H](C)O)[C@H]4[C@H]3C)cn12.[Na+]	100
C[C@@H](O)[C@H]1C(=O)N2C(C(=O)[O-])=C(c3cn4cnc(C(=O)CO)c4s3)[C@H](C)[C@H]12.[Na+]	33

Value sought for every listed molecule: residual amounts (%) after 3 hours.
1. CC(=O)c1nc(C)n2cc(C3=C(C(=O)[O-])N4C(=O)[C@H]([C@@H](C)O)[C@H]4[C@H]3C)sc12.[Na+]
2. C[C@@H](O)[C@H]1C(=O)N2C(C(=O)[O-])=C(c3cn4cnc([S+](C)[O-])c4s3)[C@H](C)[C@H]12.[Na+] (stereo partly drawn)

1: 77; 2: 44

====

SUBJECT OF TEST: porcine renal DHP-I (Sus scrofa, UniProt P22412)
Sequence (P22412 17-384): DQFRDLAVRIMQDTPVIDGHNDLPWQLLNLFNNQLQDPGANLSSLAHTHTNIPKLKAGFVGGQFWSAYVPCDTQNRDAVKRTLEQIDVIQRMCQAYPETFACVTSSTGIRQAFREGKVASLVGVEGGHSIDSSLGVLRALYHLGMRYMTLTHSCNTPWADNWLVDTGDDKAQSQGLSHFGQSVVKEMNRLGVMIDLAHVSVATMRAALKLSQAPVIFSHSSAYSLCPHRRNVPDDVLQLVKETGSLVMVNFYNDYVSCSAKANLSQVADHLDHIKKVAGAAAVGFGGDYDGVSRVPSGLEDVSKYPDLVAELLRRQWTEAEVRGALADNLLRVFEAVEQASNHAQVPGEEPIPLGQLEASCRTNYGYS
METHOD SUMMARY: Test 2: stability against DHP-I (porcine)
EXPERIMENTAL CONDITIONS: partly purified Porcine DHP-I, 100 μg (titer)/ml, 37° C., HPLC
Would you kindly list residual amounts (%) after 3 hours for each of these compounds?
Numbers only, in %.

Consider the following illustrative entries.
COMPOUND	VALUE KIND	UNIT LABEL	MEASURED VALUE
C[C@@H](O)[C@H]1C(=O)N2C(C(=O)O)=C(S[C@@H]3CN[C@H](C(=O)N(C)C)C3)[C@H](C)[C@H]12 [Compound C, meropenem, reference compound]	residual amounts (%) after 3 hours	%	41
C[C@@H](O)[C@H]1C(=O)N2C(C(=O)[O-])=C(c3cn4cnc(S(C)(=O)=O)c4s3)[C@H](C)[C@H]12.[Na+]	residual amounts (%) after 3 hours	%	64

Kindly consider the entry below.
The recorded residual amounts (%) after 3 hours with porcine renal DHP-I (Sus scrofa, UniProt P22412) for CCC(=O)c1ncn2cc(C3=C(C(=O)[O-])N4C(=O)[C@H]([C@@H](C)O)[C@H]4C3)sc12.[Na+] was 38

====

Test system: S. epidermidis ATCC14990
METHOD SUMMARY: Test 1: Anti-Microbial Activities (MIC)
Assay type: cell-based
EXPERIMENTAL CONDITIONS: Staphylococcus epidermidis, Sensitivity Disk agar-N+5% Horse blood, inoculants 10^6 CFU/ml, read-out: minimum inhibiting concentrations (MIC)
VALUE KIND: MIC

Consider the following illustrative entries.
MOLECULE	MIC
C[C@@H](O)[C@H]1C(=O)N2C(C(=O)[O-])=C(c3cn4cnc([S+](C)[O-])c4s3)[C@H](C)[C@H]12.[Na+] (stereo partly drawn)	< 0.025 µg/mL
C[C@@H](O)[C@H]1C(=O)N2C(C(=O)[O-])=C(c3cn4cnc(S(C)(=O)=O)c4s3)[C@H](C)[C@H]12.[Na+]	< 0.025 µg/mL

The reported MIC of the molecule CSc1ncn2cc(C3=C(C(=O)[O-])N4C(=O)[C@H]([C@@H](C)O)[C@H]4[C@H]3C)sc12.[Na+] was < 0.025 µg/mL

Cited source for all entries: patent US6677331B2
